Biological target: Fuc(a1-2)[Gal(a1-3)]Gal(b1-4)[Fuc(a1-3)]GlcNAc
Test: glycan array binding signal (z-score within array); higher = stronger binding
Details: glycan notation: IUPAC condensed, linker removed
The sample as a whole holds a higher share of the strongest signals than the screen did.
measured metric: glycan array binding signal (z-score)

// query glycan array binding signal (z-score) value for entry Apa (Mycobacterium tuberculosis), Rv1860 (protein) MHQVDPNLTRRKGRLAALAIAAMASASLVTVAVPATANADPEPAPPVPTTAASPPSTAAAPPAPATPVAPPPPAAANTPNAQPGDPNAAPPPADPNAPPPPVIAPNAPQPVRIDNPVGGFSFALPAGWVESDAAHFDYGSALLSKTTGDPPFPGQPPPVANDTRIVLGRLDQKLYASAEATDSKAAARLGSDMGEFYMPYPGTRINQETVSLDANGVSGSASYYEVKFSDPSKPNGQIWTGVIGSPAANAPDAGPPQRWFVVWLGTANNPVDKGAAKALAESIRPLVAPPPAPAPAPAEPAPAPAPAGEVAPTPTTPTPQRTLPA
0.273

Please give the result for Epa1to9 (Candida glabrata) (protein) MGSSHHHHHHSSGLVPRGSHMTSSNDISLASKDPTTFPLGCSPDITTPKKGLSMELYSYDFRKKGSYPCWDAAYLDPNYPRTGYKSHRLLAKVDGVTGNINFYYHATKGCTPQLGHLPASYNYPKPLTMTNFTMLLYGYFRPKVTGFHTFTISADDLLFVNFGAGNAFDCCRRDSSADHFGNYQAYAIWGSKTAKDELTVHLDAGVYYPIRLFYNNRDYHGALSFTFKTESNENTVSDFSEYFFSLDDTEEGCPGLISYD too.
-0.276

Same for SJCP3842 (Schistosoma japonicum) (protein) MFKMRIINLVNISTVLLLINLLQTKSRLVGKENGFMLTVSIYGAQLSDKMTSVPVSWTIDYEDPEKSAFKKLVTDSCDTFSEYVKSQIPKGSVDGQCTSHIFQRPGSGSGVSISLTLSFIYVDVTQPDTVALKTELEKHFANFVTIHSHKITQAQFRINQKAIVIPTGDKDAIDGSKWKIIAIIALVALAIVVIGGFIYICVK
0.536

Likewise for Ecp6 (Cladosporium fulvum), B3VBK9 (protein) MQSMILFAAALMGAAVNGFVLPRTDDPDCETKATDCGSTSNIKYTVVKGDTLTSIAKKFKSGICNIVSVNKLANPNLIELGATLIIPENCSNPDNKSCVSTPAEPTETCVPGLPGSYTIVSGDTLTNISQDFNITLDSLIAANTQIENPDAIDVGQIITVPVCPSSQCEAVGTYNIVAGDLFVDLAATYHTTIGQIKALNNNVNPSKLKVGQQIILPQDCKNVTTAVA ?
-0.021

Also need FedF (Escherichia coli), Q47212 (protein) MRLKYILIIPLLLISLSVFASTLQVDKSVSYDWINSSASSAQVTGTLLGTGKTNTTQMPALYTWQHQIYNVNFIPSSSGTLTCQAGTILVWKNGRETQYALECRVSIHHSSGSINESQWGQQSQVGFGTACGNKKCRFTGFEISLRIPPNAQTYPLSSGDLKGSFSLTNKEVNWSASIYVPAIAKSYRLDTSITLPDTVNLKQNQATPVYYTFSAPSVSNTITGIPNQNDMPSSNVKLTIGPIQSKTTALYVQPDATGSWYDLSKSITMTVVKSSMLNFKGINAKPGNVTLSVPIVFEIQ , thanks.
0.755

How about Epa13 (Candida glabrata) (protein) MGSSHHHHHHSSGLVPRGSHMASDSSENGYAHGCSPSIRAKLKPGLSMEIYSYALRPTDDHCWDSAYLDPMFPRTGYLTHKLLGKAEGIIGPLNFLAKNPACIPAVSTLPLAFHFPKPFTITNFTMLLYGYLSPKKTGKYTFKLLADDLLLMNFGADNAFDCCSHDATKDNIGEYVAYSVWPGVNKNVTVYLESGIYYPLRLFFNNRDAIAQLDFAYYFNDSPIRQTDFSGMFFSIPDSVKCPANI ?
0.02

Ok, now PLU (Photorhabdus luminiscence) (protein) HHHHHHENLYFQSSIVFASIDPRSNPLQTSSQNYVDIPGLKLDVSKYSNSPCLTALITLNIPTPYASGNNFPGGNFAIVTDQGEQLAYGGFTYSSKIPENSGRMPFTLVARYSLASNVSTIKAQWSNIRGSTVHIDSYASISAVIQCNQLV
5.59
